system: N140; test: qHTS profiling for inhibitors of Plasmodium falciparum proliferation (AID 504749);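 further: 0% = DMSO vehicle and full inhibition = artemisinin control; nearly all actives have a fitted effect of over 60% in size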; conditions: P. falciparum in erythrocytes, SYBR Green DNA, 72 h; series mostly up to 28.7 µM
Records with an inconclusive call do not appear. Calls of active or inactive are those of the source. The call rests on the fitted dose curve; in most records, active means well fitted inhibition curve with a large enough effect; inconclusive means small, poorly fitted or top-dose-only effect; inactive means flat fitted curve, though single readings scatter.
measure.name: outcome

- COc1ccc(CN2CCNCC2)c(OC)c1OC: inactive
- CC(C)C(Br)C(=O)NC(N)=O (stereo not drawn): inactive
- CCNc1nc(Cl)nc(NCC)n1: inactive

====

conditions: Ebola virus entry assay, reporter ratio channel; Channel type: primary
Activity calls are given as the source filed them. How the calls were made is not given here.
Returns: one label drawn from true for active, false for inactive

Here's what some known entries look like.
- CCN1C(=O)c2ccccc2C1Nc1ccc(OCCN2CCCCC2)cc1 (stereo not given): true
- CN(C)CCN(Cc1cccs1)c1ccccn1: true
- C[C@@]12CCC[C@H]1[C@@H]1CC[C@H]3C[C@@H](O)CC[C@]3(C)[C@H]1CC2: false
- CCCCCC(=O)O[C@]1(C(C)=O)CC[C@H]2[C@@H]3CCC4=CC(=O)CC[C@]4(C)[C@H]3CC[C@@]21C: false
- CCC(=O)Nc1ccc(O)cc1: false

Turning now to a further record.
I'd appreciate the recorded outcome for O=C(COc1ccc(Cl)cc1)N1CCN(Cc2ccc3c(c2)OCO3)CC1 from this test.
true

====

system: PAD; experiment: qHTS profiling for inhibitors of Plasmodium falciparum proliferation (AID 504749);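 further: 0% = DMSO vehicle and full inhibition = artemisinin control; nearly all actives have a fitted effect of over 60% in size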; conditions: P. falciparum in erythrocytes, SYBR Green DNA, 72 h; series mostly up to 28.7 µM
Records with an inconclusive call do not appear. Calls of active or inactive are those of the source. The call rests on the fitted dose curve; in most records, active means well fitted inhibition curve with a large enough effect; inconclusive means small, poorly fitted or top-dose-only effect; inactive means flat fitted curve, though single readings scatter.
Returns: one label drawn from class 1 = active, class 0 = inactive

Here's what some known entries look like.
- COc1ccc(CN2CCNCC2)c(OC)c1OC: class 0
- COP(=O)(OC)OC=C(Cl)Cl: class 0

Turning now to a further record.
I'd appreciate the recorded outcome for CCN(CC)C(C)C(=O)c1ccccc1 (stereo not given) from this test.
class 0

====

conditions: Ebola virus entry assay, green fluorescence channel
Entries with a potency or affinity are not part of this list.
measure.name: efficacy (%)
Give bare numbers, in %.

Some entries whose results are on file:
- O=C1OC(c2ccc(O)cc2)(c2ccc(O)cc2)c2ccccc21: -10.1
- Cc1ccc(S(=O)(=O)NC(=O)NC2CCCC2)cc1: -11.6
- C[N+]1(CC2COC(c3ccccc3)(C3CCCCC3)O2)CCCCC1 (configuration not stated): 48.1
- CN1CCCN=C1/C=C/c1cccs1: -15
- O=Cc1ccc(O)c(O)c1O: 43

Answer for every listed entry: what is its efficacy? The entries follow.
1. CCO[C@@H]1O[C@H](C(COCc2ccccc2)OCc2ccccc2)[C@H](OCc2ccccc2)[C@H]1O (some centres not stated)
2. C[C@@]12C(=O)OC(=O)[C@]1(C)C1CCC2O1
3. OCC(O)CN1CCN(c2ccccc2)CC1 (configuration not stated)
4. CC(=O)[C@H]1CC[C@H]2[C@@H]3CC=C4C[C@@H](O)CC[C@]4(C)[C@H]3CC[C@]12C
5. O=C(c1ccc(F)cc1)C1CCN(CCn2c(=S)[nH]c3ccccc3c2=O)CC1
6. CNC(=O)NC(O)C(Cl)(Cl)Cl (configuration not stated)
7. C[C@@H]1C[C@H]2[C@@H]3CCC4=CC(=O)C=C[C@]4(C)[C@@]3(F)[C@@H](O)C[C@]2(C)[C@H]1C(=O)CO

1. 70
2. 65.6
3. 24.6
4. -13.3
5. 48.9
6. -36.8
7. 20.4

Answer for every listed entry: what is its efficacy? The entries follow.
1. Cc1cccc(C)c1NC(=O)CN1CCCC1
2. c1ccc2c(c1)CCc1ccccc1N2
3. N[C@@H](CSCCCO)C(=O)O
4. O=C(Cn1ccnc1[N+](=O)[O-])NCCO
5. CCNc1nc(Cl)nc(NCC)n1
6. CCOC(=O)C(C)(C)Oc1ccc(Cl)cc1

1. 18.6
2. -29.2
3. 25.1
4. -27.8
5. 16.6
6. 22.6

Answer for every listed entry: what is its efficacy? The entries follow.
1. COc1cc(N)c(Cl)cc1C(=O)NC1CN2CCC1CC2 (configuration not stated)
2. Cc1ncc(CSSCc2cnc(C)c(O)c2CO)c(CO)c1O
3. O=C1NC2CCCCN2C12CCN(CCCN1c3ccccc3CCc3ccc(Cl)cc31)CC2 (configuration not stated)
4. Nc1ccn(C2CO[C@H](CO)O2)c(=O)n1 (some centres not stated)
5. Cc1cccc(C)c1NC(=O)C(C)N (configuration not stated)

-20.5
-36.5
-203
-24
-28.5
